- target.or.test.system: UniProt:P11940
- Sequence (P11940 whole entry): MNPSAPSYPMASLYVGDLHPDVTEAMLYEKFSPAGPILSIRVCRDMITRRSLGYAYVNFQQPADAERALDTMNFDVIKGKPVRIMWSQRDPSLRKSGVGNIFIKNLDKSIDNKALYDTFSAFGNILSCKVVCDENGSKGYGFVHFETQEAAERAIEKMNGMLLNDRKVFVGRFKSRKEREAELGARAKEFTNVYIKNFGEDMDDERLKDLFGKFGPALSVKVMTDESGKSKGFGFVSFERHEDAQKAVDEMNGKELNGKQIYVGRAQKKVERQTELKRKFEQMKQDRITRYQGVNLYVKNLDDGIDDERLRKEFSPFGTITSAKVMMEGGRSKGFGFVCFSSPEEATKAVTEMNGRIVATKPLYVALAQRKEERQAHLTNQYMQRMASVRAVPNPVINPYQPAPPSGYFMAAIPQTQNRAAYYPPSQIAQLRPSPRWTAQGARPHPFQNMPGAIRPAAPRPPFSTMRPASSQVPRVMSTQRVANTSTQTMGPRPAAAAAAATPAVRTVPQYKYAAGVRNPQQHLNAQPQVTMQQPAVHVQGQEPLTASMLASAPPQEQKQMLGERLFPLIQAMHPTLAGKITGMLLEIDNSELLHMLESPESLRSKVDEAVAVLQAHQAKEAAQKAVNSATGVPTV
- assay.remarks: MLLE binding blockers, Cy5 peptide tracer – biochemical, fluorescence polarization, Cy5-PAM2 peptide, secondary, miRNA deadenylation inhibitor project, dose response (AID 602260)
- Format: functional
- conditions: read-out: IC50_Mean
Where a name gives a salt, the structure may show the parent alone. Calls of active or inactive are those of the source.
IC50 values by entry
measured.quantity: IC50

[[record]]
molecule = "CC1=NN(c2ccccc2)C(=O)C1C(=S)SC1CC(=O)NC1=O (stereo not given)"
measured = "> 66 µM (inactive)"

[[record]]
molecule = "O=C(NC(=S)NNS(=O)(=O)c1ccccc1)c1cccnc1"
measured = "> 66 µM (inactive)"

[[record]]
molecule = "O=C(Cn1nnc(-c2cc(C(F)(F)F)cc(C(F)(F)F)c2)n1)NN=C(S)Nc1ccc(Cl)cc1"
measured = "> 66 µM (inactive)"

[[record]]
molecule = "CS(=O)(=O)c1ccc2nc(NC3(C(F)(F)F)N=C4SCCN4C3=O)sc2c1 (stereo not given)"
measured = "> 66 µM (inactive)"

[[record]]
molecule = "O=C(O)CCN1C(=O)C(=C2CCCCCC2)SC1=S"
measured = "> 66 µM (inactive)"

[[record]]
molecule = "O=c1c(O)cccc2cc(O)c(O)c(O)c12 [PURPUROGALLIN]"
measured = "> 66 µM (inactive)"

[[record]]
molecule = "OC1=C2Sc3ccccc3N=C2CCC1"
measured = "35.2 µM (inactive)"

[[record]]
molecule = "CCc1c(O)nc(SCC(=O)N2CCc3cc(OC)c(OC)cc3[C@@H]2C)nc1O"
measured = "> 66 µM (inactive)"

[[record]]
molecule = "Cc1ccc(-n2[nH]c(C)c(/C=N/c3ccc4[nH]c(O)nc4c3)c2=O)cc1C"
measured = "35.3 µM (inactive)"

[[record]]
molecule = "CC(=O)c1ccc2c(c1)N(CCCN(C)C)c1ccccc1S2 [ACEPROMAZINE MALEATE]"
measured = "> 66 µM (inactive)"


###

- target.or.test.system: 72 kDa type IV collagenase (Homo sapiens, UniProt P08253)
- Sequence (P08253 whole entry): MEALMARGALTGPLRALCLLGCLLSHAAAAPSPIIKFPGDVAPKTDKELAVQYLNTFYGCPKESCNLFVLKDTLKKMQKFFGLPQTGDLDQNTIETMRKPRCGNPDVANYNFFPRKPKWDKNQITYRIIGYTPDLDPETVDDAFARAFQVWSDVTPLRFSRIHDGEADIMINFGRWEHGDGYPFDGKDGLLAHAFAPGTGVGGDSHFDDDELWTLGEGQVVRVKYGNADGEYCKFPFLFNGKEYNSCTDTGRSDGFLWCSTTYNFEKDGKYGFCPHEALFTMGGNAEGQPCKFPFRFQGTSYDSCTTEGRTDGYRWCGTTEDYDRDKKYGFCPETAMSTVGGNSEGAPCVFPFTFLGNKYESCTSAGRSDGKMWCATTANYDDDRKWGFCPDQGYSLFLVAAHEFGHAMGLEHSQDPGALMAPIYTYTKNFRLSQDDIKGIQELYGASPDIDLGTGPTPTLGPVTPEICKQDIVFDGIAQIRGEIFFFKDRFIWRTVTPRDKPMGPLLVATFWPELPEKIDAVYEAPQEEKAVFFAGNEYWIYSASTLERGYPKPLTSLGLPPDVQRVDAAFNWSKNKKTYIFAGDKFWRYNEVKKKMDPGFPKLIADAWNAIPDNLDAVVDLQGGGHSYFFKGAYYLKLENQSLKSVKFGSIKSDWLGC
- assay.remarks: Dose Response validation of uHTS RPN11 inhibitor hits using a MMP-2 Fluorescence assay.
- Format: functional
The source made the active and inactive calls.
Possible outcomes: True = active, False = inactive

[[record]]
chemical_structure = "C/C(=N\\Nc1ccc([N+](=O)[O-])cc1)c1cc2ccccc2o1"
qualitative_label = "False"

[[record]]
chemical_structure = "Cc1ccc(CNC(=O)c2nnn(CC(=O)Nc3cc(C)cc(C)c3)c2N)cc1"
qualitative_label = "False"

[[record]]
chemical_structure = "COc1ccc(/C(C)=N/NC(=O)c2nnn(-c3nonc3N)c2-c2ccccc2)cc1"
qualitative_label = "True"

[[record]]
chemical_structure = "COc1ccccc1Cc1c(-c2cccc(Cl)c2)nc2ccc(Br)cn12"
qualitative_label = "False"


###

- target.or.test.system: UniProt O75030
- Sequence (O75030 whole entry): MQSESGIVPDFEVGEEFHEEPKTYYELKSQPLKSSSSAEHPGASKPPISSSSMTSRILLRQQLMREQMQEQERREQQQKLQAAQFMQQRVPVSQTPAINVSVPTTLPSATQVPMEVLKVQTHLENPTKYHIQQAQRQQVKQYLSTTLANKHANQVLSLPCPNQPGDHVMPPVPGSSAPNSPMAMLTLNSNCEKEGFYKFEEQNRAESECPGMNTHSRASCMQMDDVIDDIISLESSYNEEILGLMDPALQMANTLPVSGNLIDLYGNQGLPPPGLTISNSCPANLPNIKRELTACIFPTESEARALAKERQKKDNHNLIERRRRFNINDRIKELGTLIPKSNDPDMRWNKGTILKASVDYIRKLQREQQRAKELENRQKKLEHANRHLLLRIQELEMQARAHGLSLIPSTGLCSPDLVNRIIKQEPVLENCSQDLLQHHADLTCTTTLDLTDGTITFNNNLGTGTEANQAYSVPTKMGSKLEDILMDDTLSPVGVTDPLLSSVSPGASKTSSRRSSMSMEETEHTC
- assay.remarks: reducers of TRPM1 reporter luminescence, concentration series – cell-based, SK-MEL-5, cherry-picked, set 3, MITF inhibitor project, dose response (AID 493073);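 also: SK-MEL-5 melanoma cells with luciferase driven by the MITF target TRPM1 promoter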
- Type: functional
Activity calls are given as the source filed them.
AC50 values by entry
measured.quantity: AC50

[[record]]
compound = "O=C(Nc1ccc(N2CCCC2)c(Cl)c1)c1ccc([N+](=O)[O-])o1"
target_or_test_system = "UniProt O75030"
measured = "11.1 µM (active)"

[[record]]
compound = "CN1CCN(c2ccccc2NC(=O)c2ccc([N+](=O)[O-])o2)CC1"
target_or_test_system = "UniProt O75030"
measured = "4.95 µM (active)"

[[record]]
compound = "COc1ccc2[nH]cc(C(=O)CCl)c2c1"
target_or_test_system = "UniProt O75030"
measured = "5.65 µM (active)"

[[record]]
compound = "COc1cccc(/C=N/Nc2ncnc3c2ncn3Cc2ccccc2)c1O"
target_or_test_system = "UniProt O75030"
measured = "4.6 µM (active)"

[[record]]
compound = "CC(=O)Nc1ccc(S(=O)(=O)NC2=C(N3CCN(C)CC3)C(=O)c3ccccc3C2=O)cc1"
target_or_test_system = "UniProt O75030"
measured = "3.65 µM (active)"

[[record]]
compound = "COc1ccc(CNCCC(c2ccc(F)cc2)c2ccc(OC)cc2)cc1 (stereo not drawn)"
target_or_test_system = "UniProt O75030"
measured = "9.89 µM (active)"

[[record]]
compound = "O=C(Cn1ncc(Cl)c(Cl)c1=O)Nc1ccc2c(c1)OCO2"
target_or_test_system = "UniProt O75030"
measured = "13.2 µM (active)"

[[record]]
compound = "COC1=C(Nc2ccccc2)C(=O)c2ccccc2C1=O"
target_or_test_system = "UniProt O75030"
measured = "4.53 µM (active)"

[[record]]
compound = "CS(=O)(=O)c1ncc(Cl)c(C(=O)Nc2ccc(N3CCOCC3)cc2)n1"
target_or_test_system = "UniProt O75030"
measured = "22.8 µM (active)"

[[record]]
compound = "Cc1cc(C)cc(NS(=O)(=O)c2ccc3c(c2)c(=O)n(C)c(=O)n3C)c1"
target_or_test_system = "UniProt O75030"
measured = "4.67 µM (active)"

[[record]]
compound = "COc1cc(NC(=O)COc2ccccc2[N+](=O)[O-])ccc1NC(=O)c1cccs1"
target_or_test_system = "UniProt O75030"
measured = "10.1 µM (active)"

[[record]]
compound = "COc1cccc(NC(=O)c2cc3c(=O)n4ccccc4nc3n(CC(C)C)c2=N)c1"
target_or_test_system = "UniProt O75030"
measured = "7.02 µM (active)"

[[record]]
compound = "CC(=O)N(\\C=C/C=C/C=C1\\Sc2ccccc2C1=O)c1ccccc1"
target_or_test_system = "UniProt O75030"
measured = "8 µM (active)"


###

- target.or.test.system: Dual specificity protein phosphatase 6 (Rattus norvegicus)
- Sequence (Q64346 whole entry): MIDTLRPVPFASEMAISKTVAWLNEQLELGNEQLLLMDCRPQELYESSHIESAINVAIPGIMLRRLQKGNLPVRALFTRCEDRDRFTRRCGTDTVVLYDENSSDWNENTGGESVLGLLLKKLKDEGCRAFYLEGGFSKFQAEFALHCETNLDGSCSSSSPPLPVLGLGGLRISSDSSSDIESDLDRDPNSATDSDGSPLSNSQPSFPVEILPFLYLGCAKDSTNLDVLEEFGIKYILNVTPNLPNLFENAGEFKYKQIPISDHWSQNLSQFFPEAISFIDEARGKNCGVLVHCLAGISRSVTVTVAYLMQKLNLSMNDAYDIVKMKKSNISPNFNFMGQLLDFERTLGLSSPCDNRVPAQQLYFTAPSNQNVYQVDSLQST
- assay.remarks: inhibition of rat DUSP6 enzyme activity – biochemical, in vitro, primary screen (AID 425)
Calls of active or inactive are those of the source.
measured.quantity: IC50

[[record]]
chemical_structure = "COc1ccc(NC(=S)N(CCC(C)C)C2CCN(C(C)C)CC2)cc1Cl"
measured = "> 158 µM (not active)"

[[record]]
chemical_structure = "O=c1c(O)cccc2cc(O)c(O)c(O)c12"
measured = "29.2 µM (active)"

[[record]]
chemical_structure = "COc1ccc(S(=O)(=O)N2CCC(NC(=O)Nc3ccc(C)cc3)CC2)cc1"
measured = "> 100 µM (not active)"

[[record]]
chemical_structure = "CN1CCN(C(=S)C(=O)Nc2ccc(Br)cc2)CC1"
measured = "> 158 µM (not active)"


###

- target.or.test.system: Ubiquitin-conjugating enzyme E2 N (Homo sapiens)
- Sequence (P61088 whole entry): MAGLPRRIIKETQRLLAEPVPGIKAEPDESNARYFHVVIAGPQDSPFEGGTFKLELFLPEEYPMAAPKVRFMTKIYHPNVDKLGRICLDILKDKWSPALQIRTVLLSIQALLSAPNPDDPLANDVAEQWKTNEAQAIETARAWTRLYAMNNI
- Type: functional
Active and inactive are the calls of the source.
Possible outcomes: TRUE (active), FALSE (inactive)

[[record]]
molecule = "CC1CC(C)(C)n2c(O)c(/N=N/C(=N)S)c3cccc1c32 (centres undefined)"
target_or_test_system = "Ubiquitin-conjugating enzyme E2 N (Homo sapiens)"
qualitative_label = "TRUE"

[[record]]
molecule = "Cc1cc(Sc2nnc(/N=C/N(C)C)s2)c2ccccc2n1"
target_or_test_system = "Ubiquitin-conjugating enzyme E2 N (Homo sapiens)"
qualitative_label = "TRUE"

[[record]]
molecule = "CS(=O)(=O)c1ncc(Cl)c(C(=O)Nc2ccc(N3CCOCC3)cc2)n1"
target_or_test_system = "Ubiquitin-conjugating enzyme E2 N (Homo sapiens)"
qualitative_label = "FALSE"

[[record]]
molecule = "C=CCc1ccccc1OCC(O)CN1CCN(CCN2C(=O)c3cccc4cccc(c34)C2=O)CC1 (centres undefined)"
target_or_test_system = "Ubiquitin-conjugating enzyme E2 N (Homo sapiens)"
qualitative_label = "TRUE"


###

- target.or.test.system: Fatty acid synthase (Homo sapiens)
- Sequence (P49327 whole entry): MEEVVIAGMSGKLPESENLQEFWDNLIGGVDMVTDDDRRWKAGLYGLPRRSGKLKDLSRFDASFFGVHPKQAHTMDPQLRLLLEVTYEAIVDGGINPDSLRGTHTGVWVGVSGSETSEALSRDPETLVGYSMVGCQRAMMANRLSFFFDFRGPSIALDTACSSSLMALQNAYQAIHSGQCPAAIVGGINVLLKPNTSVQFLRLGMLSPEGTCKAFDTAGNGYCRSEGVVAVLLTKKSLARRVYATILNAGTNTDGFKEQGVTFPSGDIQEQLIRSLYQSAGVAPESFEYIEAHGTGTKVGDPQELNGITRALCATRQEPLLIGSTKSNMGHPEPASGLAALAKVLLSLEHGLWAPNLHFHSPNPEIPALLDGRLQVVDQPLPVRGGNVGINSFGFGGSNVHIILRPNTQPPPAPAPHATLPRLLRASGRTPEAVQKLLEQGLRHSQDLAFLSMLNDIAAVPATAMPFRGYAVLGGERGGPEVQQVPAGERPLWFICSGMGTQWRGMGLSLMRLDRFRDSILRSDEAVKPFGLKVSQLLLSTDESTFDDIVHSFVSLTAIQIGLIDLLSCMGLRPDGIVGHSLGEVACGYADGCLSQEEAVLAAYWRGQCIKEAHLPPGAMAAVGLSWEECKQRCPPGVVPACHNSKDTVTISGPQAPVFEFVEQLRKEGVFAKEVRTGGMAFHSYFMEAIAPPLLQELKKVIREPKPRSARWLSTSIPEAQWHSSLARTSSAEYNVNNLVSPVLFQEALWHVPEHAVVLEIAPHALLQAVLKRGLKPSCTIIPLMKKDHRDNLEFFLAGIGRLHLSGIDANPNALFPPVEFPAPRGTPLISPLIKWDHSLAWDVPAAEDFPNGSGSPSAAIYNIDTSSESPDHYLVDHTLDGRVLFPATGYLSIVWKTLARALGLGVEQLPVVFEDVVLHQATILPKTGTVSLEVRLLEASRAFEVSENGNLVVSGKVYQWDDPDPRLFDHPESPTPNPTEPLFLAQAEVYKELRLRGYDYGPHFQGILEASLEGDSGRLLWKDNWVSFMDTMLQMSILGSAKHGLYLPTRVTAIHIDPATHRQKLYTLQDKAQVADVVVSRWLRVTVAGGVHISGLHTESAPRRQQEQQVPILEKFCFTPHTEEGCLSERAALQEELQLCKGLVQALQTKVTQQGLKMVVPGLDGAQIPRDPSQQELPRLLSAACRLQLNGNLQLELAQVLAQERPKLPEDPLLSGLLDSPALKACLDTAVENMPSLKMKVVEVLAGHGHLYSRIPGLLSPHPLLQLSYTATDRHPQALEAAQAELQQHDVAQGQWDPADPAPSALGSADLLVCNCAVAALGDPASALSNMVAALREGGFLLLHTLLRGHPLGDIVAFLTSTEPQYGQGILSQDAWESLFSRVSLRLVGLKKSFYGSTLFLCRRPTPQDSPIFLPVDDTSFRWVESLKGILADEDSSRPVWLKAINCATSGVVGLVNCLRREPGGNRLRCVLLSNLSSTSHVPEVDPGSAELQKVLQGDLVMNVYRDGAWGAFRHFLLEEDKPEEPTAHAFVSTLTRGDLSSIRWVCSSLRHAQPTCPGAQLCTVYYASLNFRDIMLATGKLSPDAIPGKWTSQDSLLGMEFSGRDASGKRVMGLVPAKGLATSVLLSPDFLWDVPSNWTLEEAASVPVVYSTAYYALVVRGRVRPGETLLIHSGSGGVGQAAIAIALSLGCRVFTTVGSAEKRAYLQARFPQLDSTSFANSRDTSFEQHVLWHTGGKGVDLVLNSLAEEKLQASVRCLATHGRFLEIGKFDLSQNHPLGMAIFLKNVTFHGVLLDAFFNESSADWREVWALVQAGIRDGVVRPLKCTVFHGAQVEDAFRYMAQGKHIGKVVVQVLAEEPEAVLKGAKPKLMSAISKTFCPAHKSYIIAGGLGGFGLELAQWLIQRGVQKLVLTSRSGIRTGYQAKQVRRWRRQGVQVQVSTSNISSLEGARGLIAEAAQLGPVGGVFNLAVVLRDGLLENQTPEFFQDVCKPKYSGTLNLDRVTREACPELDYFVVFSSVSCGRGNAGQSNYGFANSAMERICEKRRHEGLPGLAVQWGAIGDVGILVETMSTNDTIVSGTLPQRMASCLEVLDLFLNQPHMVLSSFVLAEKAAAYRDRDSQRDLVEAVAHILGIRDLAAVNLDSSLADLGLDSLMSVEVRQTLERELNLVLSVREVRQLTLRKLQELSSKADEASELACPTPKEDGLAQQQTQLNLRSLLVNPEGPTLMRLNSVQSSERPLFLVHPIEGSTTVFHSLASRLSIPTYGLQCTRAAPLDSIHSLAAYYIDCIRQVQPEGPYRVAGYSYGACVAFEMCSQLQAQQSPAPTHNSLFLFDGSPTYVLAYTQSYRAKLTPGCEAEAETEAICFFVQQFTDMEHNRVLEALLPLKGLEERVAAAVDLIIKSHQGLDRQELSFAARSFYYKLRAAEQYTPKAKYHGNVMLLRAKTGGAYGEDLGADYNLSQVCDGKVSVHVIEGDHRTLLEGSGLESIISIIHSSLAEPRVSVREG
- assay.remarks: inhibition of human FAS-TE enzyme activity – biochemical, endpoint fluorescence intensity, uHTS hits, dose response (AID 624327);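 also: fluorescence from hydrolysis of an O-methyl fluorescein acyl ester substrate by the enzyme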
- Type: functional
Calls of active or inactive are those of the source.
measured.quantity: IC50

[[record]]
compound = "Cc1ccc2nc(N=C(N)NS(=O)(=O)c3ccc([N+](=O)[O-])cc3)nc(C)c2c1"
measured_quantity = "IC50"
measured = "12.2 µM (active)"

[[record]]
compound = "Cc1nn2c(O)cc(-c3ccc([N+](=O)[O-])cc3)nc2c1-c1ccccc1"
measured_quantity = "IC50"
measured = "11.2 µM (active)"

[[record]]
compound = "O=C(Cn1c(=O)c2sccc2n(Cc2cccc([N+](=O)[O-])c2)c1=O)NCCc1ccccc1"
measured_quantity = "IC50"
measured = "11.1 µM (active)"

[[record]]
compound = "O=C(NCC1CCCCC1)c1cc([N+](=O)[O-])ccc1Cl"
measured_quantity = "IC50"
measured = "13.8 µM (active)"

[[record]]
compound = "COc1ccccc1N1CC(C(=O)Nc2cc(C(F)(F)F)ccc2N2CCCC2)CC1=O (stereo not given)"
measured_quantity = "IC50"
measured = "6.81 µM (active)"

